# system tested: Metabotropic glutamate receptor 4 (Homo sapiens)
# Sequence (Q14833 whole entry): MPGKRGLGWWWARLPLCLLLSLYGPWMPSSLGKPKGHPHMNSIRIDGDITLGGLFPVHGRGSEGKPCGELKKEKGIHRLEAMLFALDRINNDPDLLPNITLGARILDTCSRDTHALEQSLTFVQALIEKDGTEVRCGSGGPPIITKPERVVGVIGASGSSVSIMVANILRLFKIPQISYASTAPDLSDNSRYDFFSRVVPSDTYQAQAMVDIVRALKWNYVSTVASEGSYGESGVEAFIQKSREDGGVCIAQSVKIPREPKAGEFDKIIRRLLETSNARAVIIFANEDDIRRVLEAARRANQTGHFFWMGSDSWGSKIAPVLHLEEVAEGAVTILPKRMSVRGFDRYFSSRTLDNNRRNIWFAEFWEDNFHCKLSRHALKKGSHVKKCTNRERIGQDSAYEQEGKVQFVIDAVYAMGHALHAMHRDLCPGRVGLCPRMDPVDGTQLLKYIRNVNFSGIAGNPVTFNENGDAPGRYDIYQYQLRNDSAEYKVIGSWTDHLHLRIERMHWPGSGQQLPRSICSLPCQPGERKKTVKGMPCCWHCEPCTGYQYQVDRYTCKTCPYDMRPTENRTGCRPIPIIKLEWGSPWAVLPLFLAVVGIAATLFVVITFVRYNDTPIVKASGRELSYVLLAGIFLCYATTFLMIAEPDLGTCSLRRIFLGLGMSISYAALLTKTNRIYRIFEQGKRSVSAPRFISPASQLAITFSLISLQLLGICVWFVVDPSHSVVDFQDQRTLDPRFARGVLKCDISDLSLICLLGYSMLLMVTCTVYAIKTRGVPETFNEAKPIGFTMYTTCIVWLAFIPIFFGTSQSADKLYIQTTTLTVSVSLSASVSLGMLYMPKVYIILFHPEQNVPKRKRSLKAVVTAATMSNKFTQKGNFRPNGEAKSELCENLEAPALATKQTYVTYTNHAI
# test name: Activity at human mGluR4 expressed in CHO cells coexpressing Gqi5 protein assessed as fold shifting of glutamate-induced response to left at 30 uM
# Assay type: cell-based
Catalogue of fold change (FC) values
measured attribute: fold change (FC)

chemical_smiles=O=C(Nc1ccc(Cl)c(C(F)(F)F)c1)c1ccccn1 result=1.8
chemical_smiles=COc1ccc(NC(=O)c2ccccn2)cc1Cl result=7.2
chemical_smiles=Cc1cc(NC(=O)c2ccco2)ccc1Br result=4.3
chemical_smiles=O=C(Nc1cccc(Cl)c1)c1ccccn1 result=18.1
chemical_smiles=COc1cc(NC(=O)c2ccccn2)ccc1Cl result=28.1
chemical_smiles=COc1cc(NC(=O)c2ccccn2)ccc1C result=16.8
chemical_smiles=COc1cc(NC(=O)c2ccccn2)ccc1F result=17.5
chemical_smiles=O=C(Nc1cccc(Cl)c1)c1ccco1 result=5
chemical_smiles=O=C(Nc1ccc(F)c(C(F)(F)F)c1)c1ccccn1 result=2.1
